Source: a melting point compilation (Tetko et al.; mined from patent text by program, amines drawn as free bases though some values may be those of a salt)

# reported melting point; entries follow
parameter: melting point

>>> observed("CSCc1cn(C)c2c(F)cccc2c1=O")
"165 to 167 °C"
>>> observed("O=C(O)C=Cc1cc([N+](=O)[O-])c(F)cc1Cl")
"164 to 171 °C"
>>> observed("CCOC(=O)CCc1ccc(OCc2nc(-c3ccco3)oc2C)c(OC)c1")
"88 to 89 °C"
>>> observed("N#CC=Cc1ccc(F)cc1")
"64 to 65 °C"
>>> observed("O=[N+]([O-])c1ccc(CS(=O)(=O)CCO)c(CS(=O)(=O)CCO)c1")
"126 to 128 °C"
>>> observed("O=C1c2ccccc2C(=O)N1CCCCCCCCCCOc1ccc(-n2ccnc2)cc1")
"90 to 91 °C"
>>> observed("Cc1cc(-c2cccs2)ccc1C(=O)c1cccc2c1Nc1ncccc1CN2")
"118 to 120 °C"
>>> observed("O=C(O)CCCc1cc2cc(Cl)ccc2n1S(=O)(=O)c1ccccn1")
"192 °C"
>>> observed("Cc1ccc(C)c2oc(CN3CCC[C@@H](OCc4cc(C(F)(F)F)cc(C(F)(F)F)c4)[C@H]3c3ccccc3)nc12 (relative stereo)")
"109 to 110 °C"
>>> observed("Cc1ccc(C=C(C=O)C(C=O)=Cc2ccc(C)cc2)cc1")
"177 to 178 °C"

====

melting point values by entry
parameter: melting point

>>> observed("CCOC(=O)c1cn(C2CC2)c2nc(Cl)c(F)c(C)c2c1=O")
"170 to 171 °C"
>>> observed("Cc1ccc(-c2cc(C(=O)O)nn2Cc2ccc(Cl)c(Cl)c2)cc1")
"172 °C"
>>> observed("Cc1ccc(CCCCc2ccc(C(=O)C[C@@H](C)CC(=O)O)s2)cc1")
"94 °C"
>>> observed("O=C(O)c1c(O)cccc1OCCC(c1ccccc1)(c1ccccc1)c1ccccc1")
"167 to 168 °C"
>>> observed("O=C(Nc1ccc(OCc2ccncc2)c2ccccc12)c1cc(F)cc(OC2CCCCC2)c1")
"176 to 178 °C"
>>> observed("OC[C@H](O)CN1CCC[C@@H](Nc2nccc(-c3c(-c4cccc(O)c4)nc4sccn34)n2)C1")
"185 to 187 °C"
>>> observed("Cc1ccc(S(=O)(=O)Oc2ccc(S(=O)(=O)c3ccoc3C(C)C)cc2)cc1")
"94 °C"
>>> observed("Nc1ncnc2cc(-c3ccc(C(F)(F)F)cc3)sc12")
"181 to 194 °C"
>>> observed("COc1ccc(C(=O)NNC(=O)c2ccc([N+](=O)[O-])cc2)cc1")
"256 to 258 °C"

====

# melting point values compiled below
parameter: melting point

>>> observed("CC(=O)Oc1cc(CCc2ccccc2)cc(OC(C)=O)c1")
"48 to 48.5 °C"
>>> observed("CCC(C)C(NC(=O)C(CSC(C)=O)C(F)(F)F)C(=O)O (stereo not given)")
"81 to 85 °C"
>>> observed("O=[N+]([O-])c1cn2c(n1)OC(COc1ccc(N3CCN(NCc4ccc(-c5ccc(C(F)(F)F)cc5)cc4)CC3)cc1)CC2 (stereo not given)")
"294 to 295 °C"
>>> observed("COCCN(C(=O)c1cnc(N2CC(C)(C)NC2=O)nc1N)c1cccc(C(F)(F)F)c1")
"192 to 193 °C"
>>> observed("Cn1ccc(C(Cl)Cl)n1")
"38.5 to 40 °C"
>>> observed("CC(=O)C1CCC2C3CCC4=CC(=O)C=CC4(C)C3C=CC12C (stereo not given)")
"167 to 169 °C"
>>> observed("O=C(CS(=O)Cc1cccnc1)C12CC3CC(CC(C3)C1)C2 (stereo not given)")
"116 to 119 °C"
>>> observed("COc1ccc2cc(C(C)C(=O)OCC(=O)OCCO[N+](=O)[O-])ccc2c1 (stereo not given)")
"44 to 45 °C"
>>> observed("O=C(O)/C=C/c1cc(C2CC2)nn1Cc1ccc(C(F)(F)F)cc1Cl")
"191 to 192 °C"
>>> observed("COc1cccc2c(=O)cc(-c3ccc(O)cc3)oc12")
"281 to 283 °C"
